Reported Mean survival rate of zebrafish embryos is given for each of the following molecules.
# System: zebrafish (ABiC) embryos
# ASSAY_OVERVIEW: Zebrafish embryo developmental toxicity assay
# Format: in vivo, zebrafish (Danio rerio)
# Design: unit not given here
# EXPERIMENTAL_PARAMETERS: 96 hpf, 50 μM
PARAMETER_MEASURED: Mean survival rate of zebrafish embryos

>  <MOLECULAR_STRING>
CC(C)[C@@H]1NC(=O)[C@@H]2CCCN2C1=O

>  <PARAMETER_MEASURED>
Mean survival rate of zebrafish embryos

>  <OBSERVED>
66.66

$$$$
>  <MOLECULAR_STRING>
O=C1N[C@@H](Cc2ccc(O)cc2)C(=O)N2CCC[C@@H]12

>  <PARAMETER_MEASURED>
Mean survival rate of zebrafish embryos

>  <OBSERVED>
71.11

$$$$
>  <MOLECULAR_STRING>
O=C1N[C@@H](Cc2ccccc2)C(=O)N2CCC[C@@H]12

>  <PARAMETER_MEASURED>
Mean survival rate of zebrafish embryos

>  <OBSERVED>
68.88

$$$$
>  <MOLECULAR_STRING>
CC(C)C[C@@H]1NC(=O)[C@@H]2CCCN2C1=O

>  <PARAMETER_MEASURED>
Mean survival rate of zebrafish embryos

>  <OBSERVED>
66.66

$$$$

====

# System: HT-29 cells
# ASSAY_OVERVIEW: Annexin V-FITC/PI double staining, flow cytometry
# Assay type: cell-based, human
# EXPERIMENTAL_PARAMETERS: 200 μM, 24 h, vs CTL
PARAMETER_MEASURED: Q1 + Q2 total dead cells, fold change (fold)

>  <MOLECULAR_STRING>
CC(C)[C@@H]1NC(=O)[C@@H]2CCCN2C1=O

>  <PARAMETER_MEASURED>
Q1 + Q2 total dead cells, fold change

>  <OBSERVED>
3.5

$$$$
>  <MOLECULAR_STRING>
O=C1N[C@@H](Cc2ccc(O)cc2)C(=O)N2CCC[C@@H]12

>  <PARAMETER_MEASURED>
Q1 + Q2 total dead cells, fold change

>  <OBSERVED>
5.5

$$$$
>  <MOLECULAR_STRING>
CC(C)C[C@@H]1NC(=O)[C@@H]2CCCN2C1=O

>  <PARAMETER_MEASURED>
Q1 + Q2 total dead cells, fold change

>  <OBSERVED>
3.3

$$$$
>  <MOLECULAR_STRING>
O=C1N[C@@H](Cc2ccccc2)C(=O)N2CCC[C@@H]12

>  <PARAMETER_MEASURED>
Q1 + Q2 total dead cells, fold change

>  <OBSERVED>
3.8

$$$$

====

# Test system: zebrafish (ABiC) embryos
# ASSAY_OVERVIEW: Zebrafish embryo developmental toxicity assay
# Format: in vivo, zebrafish (Danio rerio)
# Design: unit not given here
# EXPERIMENTAL_PARAMETERS: 48 hpf, 200 μM
Reported Mean survival rate of zebrafish embryos is given for each of the following molecules.

>  <MOLECULAR_STRING>
O=C1N[C@@H](Cc2ccc(O)cc2)C(=O)N2CCC[C@@H]12

>  <Mean survival rate of zebrafish embryos>
70.34

$$$$
>  <MOLECULAR_STRING>
CC(C)[C@@H]1NC(=O)[C@@H]2CCCN2C1=O

>  <Mean survival rate of zebrafish embryos>
75.55

$$$$
>  <MOLECULAR_STRING>
O=C1N[C@@H](Cc2ccccc2)C(=O)N2CCC[C@@H]12

>  <Mean survival rate of zebrafish embryos>
75.55

$$$$
>  <MOLECULAR_STRING>
CC(C)C[C@@H]1NC(=O)[C@@H]2CCCN2C1=O

>  <Mean survival rate of zebrafish embryos>
73.33

$$$$

====

# System: zebrafish (ABiC) embryos
# ASSAY_OVERVIEW: Zebrafish embryo developmental toxicity assay
# Assay type: in vivo, zebrafish (Danio rerio)
# Set-up: unit not given here
# EXPERIMENTAL_PARAMETERS: 72 hpf, 200 μM
Reported Mean survival rate of zebrafish embryos is given for each of the following molecules.
PARAMETER_MEASURED: Mean survival rate of zebrafish embryos

>  <MOLECULAR_STRING>
CC(C)[C@@H]1NC(=O)[C@@H]2CCCN2C1=O

>  <PARAMETER_MEASURED>
Mean survival rate of zebrafish embryos

>  <OBSERVED>
71.11

$$$$
>  <MOLECULAR_STRING>
O=C1N[C@@H](Cc2ccccc2)C(=O)N2CCC[C@@H]12

>  <PARAMETER_MEASURED>
Mean survival rate of zebrafish embryos

>  <OBSERVED>
73.33

$$$$
>  <MOLECULAR_STRING>
CC(C)C[C@@H]1NC(=O)[C@@H]2CCCN2C1=O

>  <PARAMETER_MEASURED>
Mean survival rate of zebrafish embryos

>  <OBSERVED>
68.88

$$$$
>  <MOLECULAR_STRING>
O=C1N[C@@H](Cc2ccc(O)cc2)C(=O)N2CCC[C@@H]12

>  <PARAMETER_MEASURED>
Mean survival rate of zebrafish embryos

>  <OBSERVED>
70.54

$$$$

====

Reported LA/NC Q2 late apoptotic or/and necrotic cells, fold change is given for each of the following molecules.
# Test system: HT-29 cells
# ASSAY_OVERVIEW: Annexin V-FITC/PI double staining, flow cytometry
# Type: cell-based, human
# EXPERIMENTAL_PARAMETERS: 50 μM, 24 h, vs CTL
PARAMETER_MEASURED: LA/NC Q2 late apoptotic or/and necrotic cells, fold change (fold)

>  <MOLECULAR_STRING>
CC(C)C[C@@H]1NC(=O)[C@@H]2CCCN2C1=O

>  <QUANTITY_UNIT>
fold

>  <OBSERVED>
2.3

$$$$
>  <MOLECULAR_STRING>
CC(C)[C@@H]1NC(=O)[C@@H]2CCCN2C1=O

>  <QUANTITY_UNIT>
fold

>  <OBSERVED>
2.5

$$$$
>  <MOLECULAR_STRING>
O=C1N[C@@H](Cc2ccc(O)cc2)C(=O)N2CCC[C@@H]12

>  <QUANTITY_UNIT>
fold

>  <OBSERVED>
8.4

$$$$
>  <MOLECULAR_STRING>
O=C1N[C@@H](Cc2ccccc2)C(=O)N2CCC[C@@H]12

>  <QUANTITY_UNIT>
fold

>  <OBSERVED>
10.5

$$$$

====

Reported Q1 dead cells, fold change is given for each of the following compounds.
# System: HT-29 cells
# ASSAY_OVERVIEW: Annexin V-FITC/PI double staining, flow cytometry
# Assay type: cell-based, human
# EXPERIMENTAL_PARAMETERS: 50 μM, 24 h, vs CTL

>  <COMPOUND>
O=C1N[C@@H](Cc2ccc(O)cc2)C(=O)N2CCC[C@@H]12 [DKP-4, cyclo (L-Pro-L-Tyr)]

>  <Q1 dead cells, fold change, fold>
1.5

$$$$
>  <COMPOUND>
O=C1N[C@@H](Cc2ccccc2)C(=O)N2CCC[C@@H]12 [DKP-3, cyclo (L-Pro-L-Phe)]

>  <Q1 dead cells, fold change, fold>
1.7

$$$$
>  <COMPOUND>
CC(C)[C@@H]1NC(=O)[C@@H]2CCCN2C1=O [DKP-2, cyclo (L-Pro-L-Val)]

>  <Q1 dead cells, fold change, fold>
1.5

$$$$
>  <COMPOUND>
CC(C)C[C@@H]1NC(=O)[C@@H]2CCCN2C1=O [DKP-1, cyclo (L-Pro-L-Leu)]

>  <Q1 dead cells, fold change, fold>
1.5

$$$$

====

Reported Q2 + Q3 total apoptotic cells, fold change is given for each of the following compounds.
# System: HT-29 cells
# ASSAY_OVERVIEW: Annexin V-FITC/PI double staining, flow cytometry
# Type: cell-based, human
# EXPERIMENTAL_PARAMETERS: 50 μM, 24 h, vs CTL
# Experimental: The dead, necrotic, and apoptotic cells were analyzed by annexin V/PI double staining method, which was used to detect the externalization of phosphatidylserine (PS). Briefly, cells at the density of 4.5 × 10^4 cells/well were seeded into 6-well plates and treated with or without DKPs for 24 h. […] Cells were analyzed by flow cytometry (FACS Calibur, Becton Dickinson, CA, USA) using WinMDI 2.9 software (La Jolla, CA, USA). […] Data were analyzed using FlowJo V12.1 software (Tree stat, Stanford, CA, USA).
PARAMETER_MEASURED: Q2 + Q3 total apoptotic cells, fold change (fold)

>  <MOLECULAR_STRING>
CC(C)[C@@H]1NC(=O)[C@@H]2CCCN2C1=O

>  <MEASURED_TARGET>
HT-29 cells

>  <OBSERVED>
2.7

$$$$
>  <MOLECULAR_STRING>
CC(C)C[C@@H]1NC(=O)[C@@H]2CCCN2C1=O

>  <MEASURED_TARGET>
HT-29 cells

>  <OBSERVED>
2.3

$$$$
>  <MOLECULAR_STRING>
O=C1N[C@@H](Cc2ccc(O)cc2)C(=O)N2CCC[C@@H]12

>  <MEASURED_TARGET>
HT-29 cells

>  <OBSERVED>
12.6

$$$$
>  <MOLECULAR_STRING>
O=C1N[C@@H](Cc2ccccc2)C(=O)N2CCC[C@@H]12

>  <MEASURED_TARGET>
HT-29 cells

>  <OBSERVED>
12.7

$$$$
